The values you see were collected from patent US20170081400A1.

# TL1A Binding Level (Early) values compiled below
# Target Or System: T1, human TL1A extracellular domain with N-terminal HIS and FLAG tag (human, UniProt O95150 72-251)
# T1 construct: the whole entry is named
# T1 sequence: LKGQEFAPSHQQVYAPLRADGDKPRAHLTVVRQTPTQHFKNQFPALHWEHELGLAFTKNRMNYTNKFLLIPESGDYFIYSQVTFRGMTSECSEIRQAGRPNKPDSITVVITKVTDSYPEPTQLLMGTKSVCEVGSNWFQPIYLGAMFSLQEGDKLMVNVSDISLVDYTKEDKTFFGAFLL
# Experimental Details: SPR Run 5, Ab from supernatant captured on Protein A, TL1A 5 ug/mL, timepoint 44
Write it as a number; the unit RU goes unstated.

Binder	Reported
320-405 (antibody, human IgG1, name in Kabat numbering, V domains shown, human IgG1, lambda) VH: QVQLVQSGAEVKKPGASVKVSCKASGYSFTSYDINWVRQAPGQGLEWMGWLNPNSGNTGYAQKFQGRVTMTADRSTSTAYMELSSLRSEDTAVYYCAREVPETAAFEYWGQGTLVTVSS VL: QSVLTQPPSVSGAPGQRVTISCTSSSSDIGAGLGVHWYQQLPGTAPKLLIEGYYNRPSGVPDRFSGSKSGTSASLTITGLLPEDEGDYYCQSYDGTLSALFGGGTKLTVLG	10
320-401 (antibody, human IgG1, name in Kabat numbering, V domains shown, human IgG1, lambda) VH: QVQLVQSGAEVKKPGASVKVSCKASGHTFTSYDINWVRQAPGQGLEWMGWLNPNSGNTGYAQKFQGRVTMTADRSTSTAYMELSSLRSEDTAVYYCAREVPETAAFEYWGQGTLVTVSS VL: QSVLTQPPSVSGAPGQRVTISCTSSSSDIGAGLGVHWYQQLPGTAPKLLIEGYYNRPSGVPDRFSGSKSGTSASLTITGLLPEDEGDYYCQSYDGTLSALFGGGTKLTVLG	11
320-381 (antibody, human IgG1, name in Kabat numbering, V domains shown, human IgG1, lambda) VH: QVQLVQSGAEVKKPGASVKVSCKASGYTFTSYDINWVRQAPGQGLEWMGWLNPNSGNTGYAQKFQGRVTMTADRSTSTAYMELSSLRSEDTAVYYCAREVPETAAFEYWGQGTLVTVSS VL: QSVLTQPPSVSGAPGQRVTISCTSSSSDIGAGLGVHWYQQLPGTAPKLLIEGYYNRPSGVPDRFSGSKSGTSASLTITGLLPEDEGDYYCQSYDGTLSASFGGGTKLTVLG	3
320-376 (antibody, human IgG1, name in Kabat numbering, V domains shown, human IgG1, lambda) VH: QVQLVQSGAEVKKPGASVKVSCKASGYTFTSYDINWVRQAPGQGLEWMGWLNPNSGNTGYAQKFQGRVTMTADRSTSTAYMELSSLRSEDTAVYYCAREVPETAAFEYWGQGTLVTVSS VL: QSVLTQPPSVSGAPGQRVTISCTSSSSDIGAGLGVHWYQQLPGTAPKLLIEGYYNRPSGVPDRFSGSKSGTSASLTITGLLPEDEGDYYCQSYDGTLSKLFGGGTKLTVLG	3

Data point: 320-421 (antibody, human IgG1, V domains shown, human IgG1, lambda; the other rows have T at 28 and F at 29, so F29Y is probably meant) VH: QVQLVQSGAEVKKPGASVKVSCKASGYTYTSYDINWVRQAPGQGLEWMGWLNPNSGNTGYAQKFQGRVTMTADRSTSTAYMELSSLRSEDTAVYYCAREVPETAAFEYWGQGTLVTVSS VL: QSVLTQPPSVSGAPGQRVTISCTSSSSDIGAGLGVHWYQQLPGTAPKLLIEGYYNRPSGVPDRFSGSKSGTSASLTITGLLPEDEGDYYCQSYDGTLSALFGGGTKLTVL ; TL1A Binding Level (Early) = 9
